# assay-remarks: Short-term storage stability of emulsions (drug conc., pH, particle size)
# Assay type: physicochemical
# experimental-conditions: emulsion; DEA 0.30%; 40° C.; 2 weeks
# Excerpt: This Example illustrates the effect of the storage temperature on short-term stability of the formulations of the invention as measured by pH and the size of the droplets. The results of short term stability of cinacalcet at different temperatures and varying TRIS buffer concentrations are presented in Table 8. Cinacalcet was stable in the emulsion formulation over 12 weeks. The pH of the emulsion is lower over time for both placebo and cinacalcet emulsions. […]
readout: D(4, 3) (µm)
Answer format: numeric, µm implied, no suffix.

Report measured D(4, 3); entry is C[C@@H](NCCCc1cccc(C(F)(F)F)c1)c1cccc2ccccc12 [Cinacalcet] 0.36

---

# assay-remarks: Short-term storage stability of emulsions (drug conc., pH, particle size)
# Type: physicochemical
# experimental-conditions: emulsion; DEA 0.05%; 40° C.; 8 weeks
readout: D(4, 3)
Express your answer as a number followed by its unit.

Please indicate D(4, 3) recorded for `C[C@@H](NCCCc1cccc(C(F)(F)F)c1)c1cccc2ccccc12` 0.43 µm

---

# assay-remarks: pH and particle size of crude cinacalcet emulsions with different oils and phospholipids
# Format: physicochemical
# experimental-conditions: crude emulsion; SBO 20%; % Purified Soy Lecithin
# Method: Table 4 illustrates the effect of different oils and phospholipids on pH and particle size of crude emulsions prepared for cinacalcet. The particle size distribution of the droplets was measured using light diffraction techniques after dilution of the emulsion in water. The particle size is represented by D(4,3) which is the volume corrected mean of the particles (units). […]
readout: D(4, 3)
Write the quantity with the unit trailing the number.

Report D(4, 3), nothing else, for this compound: `C[C@@H](NCCCc1cccc(C(F)(F)F)c1)c1cccc2ccccc12` 0.49 µm

---

# assay-remarks: pH and particle size of crude cinacalcet emulsions with different oils and phospholipids
# Format: physicochemical
# experimental-conditions: crude emulsion; SBO 5%; 1% Purified Soy Lecithin
readout: D(4, 3)

Using known records, supply D(4, 3) for `C[C@@H](NCCCc1cccc(C(F)(F)F)c1)c1cccc2ccccc12` 1.3 µm

---

# assay-remarks: pH and particle size of crude cinacalcet emulsions with different oils and phospholipids
# Assay type: physicochemical
# experimental-conditions: crude emulsion; SBO 10%; 1% Purified Soy Lecithin
readout: D(4, 3) (µm)
Number only, in µm; omit the unit.

Please look at this compound and report its D(4, 3): `C[C@@H](NCCCc1cccc(C(F)(F)F)c1)c1cccc2ccccc12` 0.98

---

# assay-remarks: Short-term storage stability of emulsions (drug conc., pH, particle size)
# Assay type: physicochemical
# experimental-conditions: emulsion; TRIS 20 mM; 40° C.; 12 weeks
readout: D(4, 3) (µm)
All answers are understood in µm, so give the number only.

Please supply the value of reported D(4, 3) for the item `C[C@@H](NCCCc1cccc(C(F)(F)F)c1)c1cccc2ccccc12` 0.29

---

# assay-remarks: pH and particle size of crude cinacalcet emulsions with different oils and phospholipids
# Type: physicochemical
# experimental-conditions: crude emulsion; MCT 10%; % Purified Soy Lecithin
readout: D(4, 3) (µm)
Use µm as the unit, but write only the number.

State its D(4, 3): C[C@@H](NCCCc1cccc(C(F)(F)F)c1)c1cccc2ccccc12 [Cinacalcet] 0.44

---

# assay-remarks: Short-term storage stability of emulsions (drug conc., pH, particle size)
# Format: physicochemical
# experimental-conditions: emulsion; DEA 0.05%; 5° C.; 4 weeks
# Excerpt: This Example illustrates the effect of the storage temperature on short-term stability of the formulations of the invention as measured by pH and the size of the droplets. The results of short term stability of cinacalcet at different temperatures and varying TRIS buffer concentrations are presented in Table 8. Cinacalcet was stable in the emulsion formulation over 12 weeks. The pH of the emulsion is lower over time for both placebo and cinacalcet emulsions. […]
readout: D(4, 3) (µm)
Please give a number only; it is taken to be in µm.

Please indicate D(4, 3) recorded for `C[C@@H](NCCCc1cccc(C(F)(F)F)c1)c1cccc2ccccc12` 0.4

---

# assay-remarks: pH and particle size of crude cinacalcet emulsions with different oils and phospholipids
# Type: physicochemical
# experimental-conditions: crude emulsion; MCT 20%; 1% Purified Soy Lecithin
readout: D(4, 3) (µm)
Quick reminder: number only, in µm, skip the unit.

Read off the recorded D(4, 3) for C[C@@H](NCCCc1cccc(C(F)(F)F)c1)c1cccc2ccccc12 [Cinacalcet] 0.47

---

# assay-remarks: Short-term storage stability of emulsions (drug conc., pH, particle size)
# Format: physicochemical
# experimental-conditions: emulsion; DEA 0.30%; 40° C.; 8 weeks
readout: D(4, 3) (µm)
Answer format: numeric, µm implied, no suffix.

Give D(4, 3) for the following compound: `C[C@@H](NCCCc1cccc(C(F)(F)F)c1)c1cccc2ccccc12` 0.37

---

# assay-remarks: pH and particle size of crude cinacalcet emulsions with different oils and phospholipids
# Type: physicochemical
# experimental-conditions: crude emulsion; MCT 20%; 1% Purified Egg Lecithin
readout: D(4, 3) (µm)
# number only, unit µm dropped from output

In one line, give reported D(4, 3) of the entry C[C@@H](NCCCc1cccc(C(F)(F)F)c1)c1cccc2ccccc12 [Cinacalcet] . 0.57

---

# assay-remarks: Short-term storage stability of emulsions (drug conc., pH, particle size)
# Assay type: physicochemical
# experimental-conditions: emulsion; DEA 0.05%; 40° C.; 6 weeks
readout: D(4, 3) (µm)
Write the answer as a number in µm, unit excluded.

Return value of D(4, 3) for input `C[C@@H](NCCCc1cccc(C(F)(F)F)c1)c1cccc2ccccc12` , no commentary. 0.39

---

# assay-remarks: pH and particle size of crude cinacalcet emulsions with different oils and phospholipids
# Format: physicochemical
# experimental-conditions: crude emulsion; STG 10%; 2% Purified Egg Lecithin
readout: D(4, 3)

Please report D(4, 3) for the following molecule: C[C@@H](NCCCc1cccc(C(F)(F)F)c1)c1cccc2ccccc12 [Cinacalcet] 0.81 µm

---

# assay-remarks: pH and particle size of crude cinacalcet emulsions with different oils and phospholipids
# Assay type: physicochemical
# experimental-conditions: crude emulsion; MCT 5%; 2% Purified Egg Lecithin
readout: D(4, 3) (µm)
Unit µm implied. Number only.

Indicate its recorded D(4, 3); the molecule in question is C[C@@H](NCCCc1cccc(C(F)(F)F)c1)c1cccc2ccccc12 [Cinacalcet] 0.35

---

# assay-remarks: Short-term storage stability of emulsions (drug conc., pH, particle size)
# Type: physicochemical
# experimental-conditions: emulsion; DEA 0.30%; 5° C.; 0 weeks
readout: D(4, 3) (µm)
Entry rule: numbers only, all in µm.

Indicate its recorded D(4, 3); the compound in question is `C[C@@H](NCCCc1cccc(C(F)(F)F)c1)c1cccc2ccccc12` 0.36

---

# assay-remarks: Short-term storage stability of emulsions (drug conc., pH, particle size)
# Assay type: physicochemical
# experimental-conditions: emulsion; TRIS 20 mM; 40° C.; 2 weeks
readout: D(4, 3) (µm)
Give the value, in units of µm, as a plain number.

Write down D(4, 3) measured for item C[C@@H](NCCCc1cccc(C(F)(F)F)c1)c1cccc2ccccc12 [Cinacalcet] 0.29

---

# assay-remarks: Short-term storage stability of emulsions (drug conc., pH, particle size)
# Format: physicochemical
# experimental-conditions: emulsion; DEA 0.30%; 40° C.; 0 weeks
readout: D(4, 3) (µm)
State just the number; it will be interpreted in µm.

Identify measured D(4, 3) corresponding to `C[C@@H](NCCCc1cccc(C(F)(F)F)c1)c1cccc2ccccc12` 0.36

---

# assay-remarks: pH and particle size of crude cinacalcet emulsions with different oils and phospholipids
# Assay type: physicochemical
# experimental-conditions: crude emulsion; SBO 20%; 1% Purified Soy Lecithin
readout: D(4, 3) (µm)
Unit µm implied. Number only.

Kindly indicate its recorded D(4, 3). Item: `C[C@@H](NCCCc1cccc(C(F)(F)F)c1)c1cccc2ccccc12` 1.4

---

# assay-remarks: pH and particle size of crude cinacalcet emulsions with different oils and phospholipids
# Assay type: physicochemical
# experimental-conditions: crude emulsion; SBO 5%; 2% Purified Egg Lecithin
readout: D(4, 3)

Name the recorded D(4, 3) of the item C[C@@H](NCCCc1cccc(C(F)(F)F)c1)c1cccc2ccccc12 [Cinacalcet] in your answer. 0.77 µm

---

Recorded solubility at 18 h values for a group of compounds are listed next.
# assay-remarks: Solubility of calcimimetics in oil phases (RP-HPLC)
# Type: physicochemical
# experimental-conditions: long-chain oil phases, oil or lipid, thermodynamic from solid

A selection of reference data follows.
{"compound-string": "COc1ccc(CN[C@H](C)c2cccc(F)c2)cc1-c1ccc(C(F)(F)F)cc1", "readout": "solubility at 18 h", "data-value": "> 300 mg/mL"}
{"compound-string": "COc1ccc(CN[C@H](C)c2ccccc2)cc1-c1ccc(OC(F)(F)F)cc1", "readout": "solubility at 18 h", "data-value": "> 300 mg/mL"}
{"compound-string": "COc1ccc(CN[C@H](C)c2cccc(Cl)c2)cc1-c1ccc(C(F)(F)F)cc1", "readout": "solubility at 18 h", "data-value": "> 300 mg/mL"}

Let me know recorded solubility at 18 h for `CCn1cc(-c2cccc(C(F)(F)F)c2)c2cc(CN[C@H](C)c3ccccc3)ccc21` , thanks. > 300 mg/mL

Provide only the value of recorded solubility at 18 h for `COc1ccc(CN[C@H](C)c2ccccc2)cc1-c1ccc(C(F)(F)F)cc1` > 300 mg/mL

State its solubility at 18 h for this compound: `COc1ccc(CN[C@H](C)c2cccc3ccccc23)cc1-c1ccc(OC(F)(F)F)cc1` 50 mg/mL
